Tested on: SN12C
testName: cell viability IC50 over 72 hours, SN12C kidney cell line
Assay type: cell-based
testConditions: Homo sapiens
Description: FIG. 4 details the sensitivity of various cell lines to LP-184, showing cell death over 72 hours. Sensitivity, gauged by IC50 data, reflects how effectively a substance can inhibit a particular biological or biochemical function. […] This IC50 value, indicating the concentration needed to reduce cell viability by 50%, is key to understanding the compound's efficacy and the temporal response of the cells to the substance. […]
property: IC50 (nM)
Give just the numeric value; nM need not be written.

Given CC1=C(CN(O)C(N)=O)C2=C(C)C3(CC3)[C@@](C)(O)C(=O)C2=C1 [LP-184, (−)-hydroxyureamethyl acylfulvene] , respond with its IC50.
349

Then there is this compound:
Given CC1=C(CN(O)C(N)=O)C2=C(C)C3(CC3)[C@](C)(O)C(=O)C2=C1 [LP-284, (+)-hydroxyureamethyl acylfulvene] , respond with its IC50.
2620

Measured values drawn from patent US20260007617A1 for this set.
